Kindly state TGI for each of the entries shown.
Tested on: NCI-H23 lung
protocol_notes: NCI tumour cell line growth inhibition, 48 h

Fill blank: measured TGI of the compound Nc1cc(O)c2cc(N=Nc3ccc(N=Nc4ccc(N=Nc5ccc6cc(S(=O)(=O)O)cc(S(=O)(=O)O)c6c5)c5ccccc45)c4cc(S(=O)(=O)O)ccc34)c(S(=O)(=O)O)cc2c1 is ____.
> 100 µM

Could you share which TGI value was measured for NNC(=O)COc1nc(-c2cccs2)nc2ccc(I)cc12 ?
41.2 µM

Please look up its TGI: CCn1c(SC)nnc1-c1cc2c([nH]c3ccccc32)c(-c2cccc(O)c2)n1
50.6 µM

Value lookup for TGI; key = CC(=O)Nc1ccc(C(=O)COc2cccc(/C=C3\CCc4ccccc4C3=O)c2)cc1
43.4 µM

Param item = Cc1cc2c(=O)cc(-c3ccncc3)oc2c(C(=O)O)c1C ; retrieve measured TGI.
> 100 µM

Bench note: what TGI did COc1c(-c2nc3nc(N4CCN(C)CC4)ccc3[nH]2)cc(OC)c2c1nc(CCl)n2C show?
47 µM

What value of TGI has been reported for the following compound? Cc1cccc2c1Oc1ncccc1C2NC(=O)CN(C)C (stereo unspecified)
> 10 µM

What value of measured TGI is listed for CS(=O)(=O)Nc1ccc(Nc2c3ccccc3nc3cc(Cl)ccc23)cc1 ?
18.9 µM

Fill in: TGI of O=C(NCc1ccc(Cl)c(Cl)c1)c1nc2ccccc2nc1NCc1ccc(Cl)c(Cl)c1 is ___
> 100 µM

Form field: reported TGI of CCCCC(C)(C/C=C/[C@@H]1[C@@H](C(O)CCCCCC(=O)OC)C(=O)C[C@H]1O[Si](C)(C)C(C)(C)C)O[Si](C)(C)C (stereo partly specified)
> 100 µM

Consider the compound NS(=O)(=O)c1cc2c(cc1Cl)NC(C(=O)NNC(=O)c1ccncc1)=NS2(=O)=O and give its measured TGI.
> 100 µM

Entry under review: O=C(Cn1c(-c2ccccc2)cc2ccccc21)N1CCOCC1 . Reported TGI?
> 100 µM

Need TGI of N/N=C(\N)SCc1ccc(N=C=S)cc1 , thanks.
> 100 µM

Item COC(=O)C1=C(C)C(=O)C2(CCCCCC2C(=O)OC)C1 (stereo unspecified) has what recorded TGI?
> 100 µM

Data request, read-out TGI, for O=C(c1ccccc1)n1c2ccc(Br)cc2c2nc3ccccc3nc21
> 100 µM

What does the data say about its TGI? Entry: O=P1(C(O)c2ccccc2)N(Cc2ccccc2)[C@@H]2CCCC[C@H]2N1Cc1ccccc1 (stereo partly specified)
> 100 µM

Need TGI of COc1ccc(OC)c2c(Nc3ccc(S(=O)(=O)O)c4cc(S(=O)(=O)O)cc(S(=O)(=O)O)c34)cc(C)nc12 , thanks.
> 100 µM

Form field: reported TGI of CC(=O)Oc1cc(OC(C)=O)c2c(c1C)CC[C@@H]1[C@@H]2CC[C@]2(C)[C@@H](OC(C)=O)CC[C@@H]12
38.8 µM

Param item = Cc1cc(N(CCCl)CCCl)ccc1/C=N\NC(=O)c1cccnc1 ; retrieve measured TGI.
> 100 µM

Look up TGI for this compound: CCCCCCCCCCCCCCCC(=O)NCC(OCC)OCC
> 100 µM

Given the entry COC(=O)CCSC(=O)Nc1ccccc1Cl , report its measured TGI.
> 100 µM

Please report the recorded TGI for COc1ccc(-c2cc(=O)c3cc(OC)c(OC)cc3[nH]2)cc1OC .
> 100 µM

Look at this compound and give its reported TGI. O=C(Nc1cccc(C(F)(F)F)c1)Nc1ccc(OCc2nnc(-c3ccccc3)o2)c(F)c1
24.5 µM

Name the reported TGI value associated with the compound N=c1sc(N2CCOCC2)nn1CC(=O)c1ccccc1
> 100 µM

Fill in the blank: the reported TGI of COC(=O)N/N=C(\c1nc2ccc(Cl)cc2[nH]c1=O)C(O)c1ccc([N+](=O)[O-])cc1 (stereo unspecified) is ____.
> 100 µM

Returns the measured TGI for the input compound. Input: NC1CC(n2ccc(=O)[nH]c2=O)OC1C(O)CO (stereo unspecified)
> 100 µM

If you can, please state the reported TGI value of CCOC(=O)c1c(SCCN(CC)CC)n(-c2ccccc2)c(=S)n(-c2ccccc2)c1=O .
44.6 µM

Query (compound): O=CC12CCCN1CCC2 ; field requested: TGI
> 100 µM

Entry Cn1c(=O)c(C#N)c(O)c2cc3ccccc3nc21 has what TGI?
> 100 µM

Please look up its TGI: COc1ccc(Cl)cc1Nc1nc(C(F)(F)F)ccc1C(=O)N/N=C/c1ccc(Cl)cc1
42 µM

Entry CN1OC(CO)CC12C1CC3CC(C1)CC2C3 (stereo unspecified) : reported TGI = ?
> 100 µM

Fill blank: measured TGI of the compound Nc1nc(N)c2ncn(Cc3ccccc3)c2n1 is ____.
> 100 µM

What does the data say about its TGI? Entry: O=C1Cc2c(-c3ccccc3)cc(-c3ccc(Cl)cc3)nc2-c2ccccc2N1
17.8 µM

Would you mind telling me what TGI value was observed for O=C(CO[N+](=O)[O-])OCC(=O)c1ccccc1 ?
> 100 µM

What does the data say about its TGI? Entry: CCOC(=O)Oc1ccc2[nH]c3c(C)cc(N)c(C)c3c2c1
> 100 µM

Give the measured TGI of Cc1cc(NS(=O)(=O)c2ccc(NC(NC(=O)OC(C)C)(C(F)(F)F)C(F)(F)F)cc2)nc(C)n1 .
> 100 µM

May I ask what TGI has been recorded for COc1ccc(-c2ccc(/C=N/n3c(COc4ccc(Cl)c(C)c4)nn(CN4CCOCC4)c3=S)o2)c([N+](=O)[O-])c1 ?
51.6 µM

Sample CC(=O)OCc1cc2c(s1)C(=O)c1sccc1C2=O — what was its TGI?
0.0378 µM

I am curious: what TGI value has been reported for CCCCN1/C(=N/Nc2n[nH]c(=O)c3ccccc23)SCC1c1ccc(Cl)cc1 (stereo unspecified) ?
14.7 µM

GET /values?readout=TGI&item= COc1ccc(S(=O)(=O)NCCCNc2nccc(-c3c(-c4ccc(F)cc4)nc4sccn34)n2)cc1
> 100 µM

Which TGI value belongs to O=C(C[N+]1(c2ccccc2)CCOCC1)c1ccccc1 ?
> 100 µM

====

Tested on: SK-MEL-5 melanoma
protocol_notes: NCI tumour cell line growth inhibition, 48 h
observable: TGI (µM)
Give the value, in units of µM, as a plain number.

I'd like to know its TGI. The compound in question is CC(C)c1nc(Cl)c(Cl)c(Cl)n1
30.9

Query (compound): O=C(Nc1nc2ccc([N+](=O)[O-])cc2s1)c1cc([N+](=O)[O-])ccc1Cl ; field requested: TGI
2.83

Bench note: what TGI did CC(=O)OC1CCC2(C)C(=CCC3C4CC(CN5CC5)C(=O)C4(C)CCC32)C1 (configuration not stated) show?
25.9

Would you kindly share the measured TGI for O=C1Cc2c(-c3ccccc3)cc(-c3ccc(Cl)cc3)nc2-c2ccccc2N1 ?
17

For the compound O=C1COc2c(CCNCCN(C(=O)CCNCCc3ccc(Cl)c(Cl)c3)C3CCCCC3)ccc(O)c2N1 , what TGI is on record?
29.4

TGI lookup needed for O=[N+]([O-])c1cccc2c1[nH]c1c(-c3ccccc3)nccc12 , thanks.
3.46

# TGI lookup, item ClCc1ccc(Cn2cnc3nc(Cl)nc(Cl)c32)cc1
3.75

Reported TGI for Nc1ccc(N)c2c1C(=O)c1cccc([N+](=O)[O-])c1C2=O : what is it?
3.76

Which TGI value belongs to CN1Cc2c(ccc3c2OCO3)[C@@H]2[C@H](O)Cc3cc4c(cc3[C@@H]21)OCO4 ?
40

====

Give measured TGI for each item. Keep answers brief.
System: U251 CNS
protocol_notes: NCI tumour cell line growth inhibition, 48 h

Please report the recorded TGI for Nc1ccc(N)c2c1C(=O)c1cccc([N+](=O)[O-])c1C2=O .
> 100 µM

// TGI lookup, key: O=C(Nc1cccc(C(F)(F)F)c1)Nc1cc(S(=O)(=O)NC2CC2)ccc1-c1ccsc1
13.6 µM

I am curious: what TGI value has been reported for COC(=O)C(NC(=O)c1ccccc1)c1ccc(OC)c(I)c1 (configuration not stated) ?
> 100 µM

Bench note: what TGI did N=c1sc(N2CCOCC2)nn1CC(=O)c1ccccc1 show?
> 100 µM

Please report the recorded TGI for COc1cc(/C=C/C(=O)c2c(-c3ccc(Cl)cc3)nc3sc(C)nn23)cc(OC)c1OC .
> 100 µM

Could you share which TGI value was measured for CS(=O)(=O)Nc1ccc(Nc2c3ccccc3nc3cc(Cl)ccc23)cc1 ?
13.5 µM

If you can, please state the reported TGI value of CCOC(=O)C1(NC(=O)OC(C)(C)C)CCc2[nH]oc(=O)c2C1 (configuration not stated) .
> 100 µM

Which TGI value belongs to CCc1c[nH]c2ncnc(N3CC[C@](N)(CNC(=O)c4ccc(F)cc4F)C3)c12 ?
> 100 µM

Requested field: TGI. Item: O=c1cccccc1[O-].O=c1cccccc1[O-].O=c1cccccc1[O-].[Dy+3]
> 100 µM

Could you tell me which TGI is on file for CO[C@@H](c1ccccc1)[C@H](O)[C@@](O)(c1ccccc1)P(=O)(OC)OC ?
> 100 µM

Using the record for CN1OC(CO)CC12C1CC3CC(C1)CC2C3 (configuration not stated) , report its TGI.
> 100 µM

Give the measured TGI of O=CC12CCCN1CCC2 .
> 100 µM

Entry COC(=O)C1=C(C)N(NC(=O)Nc2ccccc2)C2(N)N(NC(=O)Nc3ccccc3)C(C)=C(C(=O)OC)C12C(=O)OC (configuration not stated) has what TGI?
> 100 µM

Could you share which TGI value was measured for c1csc(-c2[nH]nc3c2CCc2ccccc2-3)c1 ?
26.3 µM

Need TGI, item ClCc1ccc(Cn2cnc3nc(Cl)nc(Cl)c32)cc1
1.96 µM

Name the recorded TGI for CCc1nc2cc(F)ccc2[nH]c1=O .
> 100 µM

Need TGI, item Cn1c(=O)c(C#N)c(O)c2cc3ccccc3nc21
> 100 µM

Field request: TGI | item: CC1=C(C(=O)OC(C)(C)C)C(c2ccc([N+](=O)[O-])cc2)C(C(=O)OC(C)(C)C)=C(C)N1
39.3 µM

What value of TGI has been recorded for this entry: O=C(Nc1nc2ccc([N+](=O)[O-])cc2s1)c1cc([N+](=O)[O-])ccc1Cl
12.1 µM

So what's the measured TGI for this one? CC(C)(CCc1nc2ccccc2[nH]1)C(=O)O
> 100 µM

Recorded TGI of CCOC(=O)C1C(=O)C(=O)N2CCc3c([nH]c4ccccc34)C12 (configuration not stated) , please.
> 100 µM

May I ask what TGI has been recorded for Cn1c(=O)c(Oc2ccc(F)cc2F)cc2cnc(NC3CCC(O)CC3)nc21 (configuration not stated) ?
> 25 µM

Hey, just so you know, these numbers are from PubChem BioAssay (NCI).
